I'd be grateful if you could share measured GI50 for these entries.
- Test system: MDA-MB-435
- Assay Method Text: Growth inhibition of human MDA-MB-435 cells after 48 hrs by sulforhodamine B assay
- Format: functional
- Study Conditions: MDA-MB-435, 48 h
State just the number; it will be interpreted in µM.

The compound identified as N#Cc1c(C(=O)c2cn(-c3ccc(Cl)cc3)nc2C(=O)Nc2ccccc2)nn(-c2ccccc2)c1-c1ccccc1 registered its GI50 at 2.03

The compound identified as CCOC(=O)c1nn(-c2ccc(Cl)cc2)cc1C(=O)c1nn(-c2ccccc2)c(-c2ccccc2)c1C#N registered its GI50 at 71.8

The compound identified as N#Cc1ccc(C(c2ccc(C#N)cc2)n2cncn2)cc1 registered its GI50 at 0.067

The compound identified as N#Cc1c(-c2nnc(-c3ccccc3)c3nn(-c4ccc(Cl)cc4)cc23)nn(-c2ccccc2)c1-c1ccccc1 registered its GI50 at 23.8

The compound identified as N#Cc1c(-c2nnc(-c3nn(-c4ccccc4)c(-c4ccccc4)c3C#N)c3nn(-c4ccc(Cl)cc4)cc23)nn(-c2ccccc2)c1-c1ccccc1 registered its GI50 at 9.2

The compound identified as N#Cc1c(-c2nnc(O)c3nn(-c4ccccc4)cc23)nn(-c2ccccc2)c1-c1ccccc1 registered its GI50 at 21.8

The compound identified as N#Cc1c(C(=O)c2cn(-c3ccccc3)nc2-c2ccccc2)nn(-c2ccccc2)c1-c1ccccc1 registered its GI50 at 61

The compound identified as N#Cc1c(-c2nnc(-c3ccccc3)c3cn(-c4ccccc4)nc23)nn(-c2ccccc2)c1-c1ccccc1 registered its GI50 at 31.8

The compound identified as Cc1ccc(-n2cc(C(=O)c3nn(-c4ccccc4)c(-c4ccccc4)c3C#N)c(C(=O)Nc3ccccc3)n2)cc1 registered its GI50 at 2.23
